# assayedTarget: hPrp28ΔN (Homo sapiens, UniProt Q9BUQ8)
# Sequence (Q9BUQ8 338-820): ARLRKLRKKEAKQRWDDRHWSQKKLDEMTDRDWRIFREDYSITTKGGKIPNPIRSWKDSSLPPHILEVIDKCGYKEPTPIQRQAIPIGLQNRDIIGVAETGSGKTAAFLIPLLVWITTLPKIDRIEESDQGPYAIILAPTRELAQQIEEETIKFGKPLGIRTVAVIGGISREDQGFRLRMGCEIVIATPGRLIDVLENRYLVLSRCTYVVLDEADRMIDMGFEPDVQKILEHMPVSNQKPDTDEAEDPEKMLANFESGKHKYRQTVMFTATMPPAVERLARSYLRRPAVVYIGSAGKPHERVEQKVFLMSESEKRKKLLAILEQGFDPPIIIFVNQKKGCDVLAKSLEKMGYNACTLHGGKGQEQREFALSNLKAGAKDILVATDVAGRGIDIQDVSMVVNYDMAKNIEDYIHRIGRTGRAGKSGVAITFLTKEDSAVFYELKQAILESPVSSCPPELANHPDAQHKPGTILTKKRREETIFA
pKd: −log10 of the molar value.
resultType: pKd

Problem: Need pKd, item `CNc1ccccc1C(=O)O[C@H]1[C@@H](O)[C@H](n2cnc3c(N)ncnc32)O[C@@H]1CO[P@@](=O)(O)O[P@](=O)(O)OP(=O)(O)O`
Result: < 3.40

src = paper PMC4051504
